B1: EF-hand domain-containing protein 1 (Homo sapiens), Q5JVL4 (parent)
chain: MVSNPVHGLPFLPGTSFKDSTKTAFHRSQTLSYRNGYAIVRRPTVGIGGDRLQFNQLSQAELDELASKAPVLTYGQPKQAPPADFIPAHVAFDKKVLKFDAYFQEDVPMSTEEQYRIRQVNIYYYLEDDSMSVIEPVVENSGILQGKLIKRQRLAKNDRGDHYHWKDLNRGINITIYGKTFRVVDCDQFTQVFLESQGIELNPPEKMALDPYTELRKQPLRKYVTPSDFDQLKQFLTFDKQVLRFYAIWDDTDSMYGECRTYIIHYYLMDDTVEIREVHERNDGRDPFPLLMNRQRVPKVLVENAKNFPQCVLEISDQEVLEWYTAKDFIVGKSLTILGRTFFIYDCDPFTRRYYKEKFGITDLPRIDVSKREPPPVKQELPPYNGFGLVEDSAQNCFALIPKAPKKDVIKMLVNDNKVLRYLAVLESPIPEDKDRRFVFSYFLATDMISIFEPPVRNSGIIGGKYLGRTKVVKPYSTVDNPVYYGPSDFFIGAVIEVFGHRFIILDTDEYVLKYMESNAAQYSPEALASIQNHVRKREAPAPEAESKQTEKDPGVQELEALIDTIQKQLKDHSCKDNIREAFQIYDKEASGYVDRDMFFKICESLNVPVDDSLVKELIRMCSHGEGKINYYNFVRAFSN

Variants of: B1
applied_conditions: with ikzf3_human IKZF3, Q9UKT9
Sequence (Q9UKT9 whole entry): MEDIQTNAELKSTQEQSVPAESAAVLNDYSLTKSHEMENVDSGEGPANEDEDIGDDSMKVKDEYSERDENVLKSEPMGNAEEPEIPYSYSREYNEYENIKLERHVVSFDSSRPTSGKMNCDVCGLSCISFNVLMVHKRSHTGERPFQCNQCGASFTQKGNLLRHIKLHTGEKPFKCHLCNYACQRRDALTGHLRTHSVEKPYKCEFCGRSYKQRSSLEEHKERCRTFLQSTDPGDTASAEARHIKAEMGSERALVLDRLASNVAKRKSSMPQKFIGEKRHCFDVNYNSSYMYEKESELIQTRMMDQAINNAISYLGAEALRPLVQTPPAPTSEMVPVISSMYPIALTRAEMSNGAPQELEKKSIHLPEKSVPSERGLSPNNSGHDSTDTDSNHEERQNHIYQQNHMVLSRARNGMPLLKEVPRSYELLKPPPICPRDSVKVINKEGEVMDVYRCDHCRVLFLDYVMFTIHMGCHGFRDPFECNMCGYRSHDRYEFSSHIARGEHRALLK
quantity: effect of a mutation on the interaction

>  <variant_string>
T508R

>  <quantity>
effect of a mutation on the interaction

>  <result_value>
with no effect

$$$$
>  <variant_string>
M448T

>  <quantity>
effect of a mutation on the interaction

>  <result_value>
with no effect

$$$$
>  <variant_string>
R159W

>  <quantity>
effect of a mutation on the interaction

>  <result_value>
with no effect

$$$$
